TARGET_DESC: hERG K+ channel (Homo sapiens, UniProt Q12809)
Sequence (Q12809 whole entry): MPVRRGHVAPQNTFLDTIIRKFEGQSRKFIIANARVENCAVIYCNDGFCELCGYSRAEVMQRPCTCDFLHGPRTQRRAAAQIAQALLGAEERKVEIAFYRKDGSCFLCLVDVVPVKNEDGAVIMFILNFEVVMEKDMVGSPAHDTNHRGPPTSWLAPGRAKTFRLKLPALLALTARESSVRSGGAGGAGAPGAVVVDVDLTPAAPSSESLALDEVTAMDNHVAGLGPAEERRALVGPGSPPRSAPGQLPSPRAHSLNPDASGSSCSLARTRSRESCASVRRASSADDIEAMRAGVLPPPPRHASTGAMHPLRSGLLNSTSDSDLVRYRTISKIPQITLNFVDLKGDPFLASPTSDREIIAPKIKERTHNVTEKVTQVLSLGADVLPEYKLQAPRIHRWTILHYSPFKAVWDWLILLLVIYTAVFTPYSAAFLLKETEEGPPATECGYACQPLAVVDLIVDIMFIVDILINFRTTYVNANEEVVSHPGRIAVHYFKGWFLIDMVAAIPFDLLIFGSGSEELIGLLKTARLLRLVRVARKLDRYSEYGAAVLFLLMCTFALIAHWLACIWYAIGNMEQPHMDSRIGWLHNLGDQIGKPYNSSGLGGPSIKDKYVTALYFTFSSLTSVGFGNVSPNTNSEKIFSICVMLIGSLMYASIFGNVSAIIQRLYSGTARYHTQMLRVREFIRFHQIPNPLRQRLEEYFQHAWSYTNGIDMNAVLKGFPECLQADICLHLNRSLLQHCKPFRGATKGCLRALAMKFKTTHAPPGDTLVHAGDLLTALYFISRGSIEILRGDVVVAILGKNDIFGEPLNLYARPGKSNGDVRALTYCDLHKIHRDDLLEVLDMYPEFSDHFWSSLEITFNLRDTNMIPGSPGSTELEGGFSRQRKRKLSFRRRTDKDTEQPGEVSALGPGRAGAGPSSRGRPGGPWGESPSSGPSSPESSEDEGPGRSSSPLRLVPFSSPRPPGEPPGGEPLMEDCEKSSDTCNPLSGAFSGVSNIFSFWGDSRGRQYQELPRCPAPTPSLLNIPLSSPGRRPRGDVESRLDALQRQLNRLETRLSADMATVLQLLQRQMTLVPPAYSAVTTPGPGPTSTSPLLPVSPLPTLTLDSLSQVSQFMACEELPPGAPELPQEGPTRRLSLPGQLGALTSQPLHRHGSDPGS
PROTOCOL_SUMMARY: hERG channel inhibition assay (patch-clamp, CHOhERG cells)
TEST_PARAMETERS: whole-cell patch-clamp
pIC50: −log10 of the molar value.
Please respond with reported pIC50 for every item in the list.

query: For the compound C[C@@H]1CN(c2ccc(C#N)c3ncccc23)C[C@@H]2Cc3cc(N[C@@H]4CNC[C@@H]4F)ccc3CN21 , what pIC50 is on record?
result: < 4.70

query: Which pIC50 reading was recorded for the compound C[C@@H]1CN(c2ccc(C#N)c3ncccc23)C[C@@H]2Cc3cc(OC[C@@H]4CCN4)ccc3CN21 ?
result: < 4.70

query: Could you tell me which pIC50 is on file for C[C@@H]1CN(c2ccc(C#N)c3ncccc23)C[C@@H]2Cc3cc(N4C[C@@H]5CNCCN5C4=O)ccc3CN21 (single isomer, unassigned) [Example 17A] ?
result: < 4.70
